Values from PubChem BioAssay AID220

Provide the reported T/C of each item.
Tested on: CD8F1 mice, subcutaneous mammary adenocarcinoma, T/C%
ASSAY_DETAILS: NCI In Vivo Anticancer Drug Screen. Data for tumor model Mammary Adenocarcinoma CD8F1 (subcutaneous) in CD8F1
CONDITIONS: endpoint: median tumor weight change; dose: 125.0 mg/kg/injection; schedule: Q01DX001 (ip); vehicle: saline with Tween-80; higher = larger tumour
Inconclusive results are not listed.

Dear colleague, I am looking for the recorded T/C of the following compound: `[O-][n+]1c(CN2CCCCC2)nc2cccc3c2c1-c1ccccc1-3`
78 % of control

Dear colleague, I am looking for the recorded T/C of the following compound: COC1/C=C/O[C@@]2(C)Oc3c(C)c(O)c4c(O)c(cc(O)c4c3C2=O)NC(=O)/C(C)=C\C=C\[C@H](C)C(O)[C@@H](C)[C@@H](O)[C@@H](C)[C@H](OC(C)=O)[C@@H]1C (some centres undefined)
98 % of control

Which T/C value belongs to `N#CC(=C1C=CC(=NO)C=C1)c1ccc(Cl)cc1` ?
88 % of control

So what's the measured T/C for this one? N#CCCSC(=S)C1CCCC1=N (centres undefined)
44 % of control

Dear colleague, I am looking for the recorded T/C of the following compound: `CC(/C=C/c1ccccc1)=Nc1ccccc1`
107 % of control

Requested field: T/C. Item: `Nc1ccc(S(N)(=O)=O)cc1`
110 % of control

Look up T/C: `C[CH2][Ge]([CH2]C)[CH2]C.C[CH2][Ge]([CH2]C)[CH2]C.C[CH2][Ge]([CH2]C)[O][Ge]([CH2]C)[CH2]C`
81 % of control

Give its T/C value. Item: `ClCc1ccc2ccccc2n1`
54 % of control

Need T/C of Oc1c(Cl)cc(Cl)cc1C1N2CCCCC2C2c3cccn3-c3ccccc3N21 (centres undefined) , thanks.
69 % of control

Looking for the measured T/C of `O=S(=O)(CCl)OCCCl` , can you help?
60 % of control

Find the recorded T/C belonging to `O=S(=O)(N=N/C=C1\C=CC=CN1O)c1cccs1` and report it.
76 % of control

For the compound shown here, `C=C(C)[C@@H]1CCc2c(O)c(O)c(=O)cc(C)c2C1` , give the reported T/C.
88 % of control

Looking for the measured T/C of `CCN(CC)CCNc1ccc(C)c2sc3ccc(O)cc3c(=O)c12` , can you help?
169 % of control

Could you share which T/C value was measured for `O=C1[C@H]2CCC[C@H]2[C@H]2CCC[C@@H]12` ?
44 % of control
